These data points were gathered from a melting point compilation (Tetko et al.; mined from patent text by program, amines drawn as free bases though some values may be those of a salt).

Measured melting point values are reported for all entries that follow.

Solved cases (2 shown):
> print(dat)
                                  molecule  measurement
1           Oc1cc2c(c3c1CC=CC3)Nc1ccccc1S2       166 °C
2  CSc1ccc(N2CCc3ccccc32)c([N+](=O)[O-])c1  67 to 69 °C

Then this molecule:
Q: Kindly indicate its recorded melting point. Item: CC(C)(C)c1cccc(S(=O)(=O)n2c(Cc3ccc(CNS(C)(=O)=O)cc3)cc3cc(C(F)(F)F)ccc32)c1
A: 96 °C

* * *

This listing pairs compounds with measured melting point.

> print(dat)
                                   compound    measurement
1  C#CCn1c(-c2ccc(Cl)nc2Cl)nc(OS(=O)(=O)C(F)(F)F)c(OC)c1=O  133 to 135 °C
2  CC(=O)NC(=O)C(Cl)C(C)=O (stereo not drawn)    54 to 58 °C

Next compound, please.
Q: Note down melting point recorded for COc1cccc(NC(=O)c2cc(C)sc2Br)c1O
A: 169 to 172 °C
